assay_remarks: Pharmacokinetics in rat
Format: in vivo
measurement_conditions: plasma, IV, 1 mg/kg
Measured AUC(0-t), listed per entry for reference.
endpoint_label: AUC(0-t) (µg·h/mL)

1. Cc1c(Oc2cccc(NS(=O)(=O)NC3CC3)c2Cl)c(C(=O)NC2CC2)c(Nc2ccc(I)cc2F)n(C)c1=O [Compound I-42]: 0.205
2. CNS(=O)(=O)Nc1cccc(Oc2c(C(=O)NC3CC3)c(Nc3ccc(I)cc3F)n(C)c(=O)c2C)c1Cl [Compound I-2]: 1.07
3. Cc1c(Oc2cccc(NS(=O)(=O)NCC(F)(F)F)c2Cl)c(C(=O)NC2CC2)c(Nc2ccc(I)cc2F)n(C)c1=O [Compound I-46]: 1.55

---

Test system: cancer cell lines
assay_remarks: In vitro MEK inhibitor drug combinations (Cell Titer Glo, Loewe synergy)
Type: cell-based
measurement_conditions: combination with I-2; AsPC-1, HPAF, MiaPACA2, NCI-H1373, NCI-H2122, PANC03276; 5 days
Each record here notes measured Loewe Synergy Score > 10.
endpoint_label: Loewe Synergy Score > 10

1) Cc1nc(N2CCC3(CC2)CO[C@@H](C)[C@H]3N)c(CO)nc1-c1cccc(Cl)c1Cl: 3/6 cell lines
2) C[C@H](Nc1ccc2c(c1)OCCn1cc(N3C(=O)OC[C@H]3C(F)F)nc1-2)C(N)=O: 5/6 cell lines
3) CO[C@H]1C[C@@H]2CC[C@@H](C)[C@@](O)(O2)C(=O)C(=O)N2CCCC[C@H]2C(=O)O[C@H]([C@H](C)C[C@@H]2CC[C@@H](OCCO)[C@H](OC)C2)CC(=O)[C@H](C)/C=C(\C)[C@@H](O)[C@@H](OC)C(=O)[C@H](C)C[C@H](C)/C=C/C=C/C=C/1C: 5/6 cell lines
4) Cc1ccc(NC(=O)c2ccnc(C(F)(F)F)c2)cc1-c1cc(OCCO)nc(N2CCOCC2)c1: 6/6 cell lines

---

assay_remarks: Cassette pharmacokinetics studies in mice
Assay type: in vivo
measurement_conditions: male, Balb/c, plasma; Mouse, IV, 2 mg/kg
Measured half-life accompanies every entry in the list below.
endpoint_label: half-life (min)

1) CNS(=O)(=O)Nc1cccc(Oc2c(C(=O)NC3CC3)c(Nc3ccc(I)cc3F)n(C)c(=O)c2C)c1Cl [Compound I-2]: 62.4
2) CNS(=O)(=O)Nc1cccc(Oc2c(C(=O)NC3CC3)c(Nc3ccc(I)cc3F)n(C)c(=O)c2C)c1OC [Compound I-1]: 100

---

assay_remarks: Pharmacokinetics in rat
Assay type: in vivo
measurement_conditions: plasma, IV, 1 mg/kg
Readings of half-life for the listed compounds
endpoint_label: half-life (h)

1) CNS(=O)(=O)Nc1cccc(Oc2c(C(=O)NC3CC3)c(Nc3ccc(I)cc3F)n(C)c(=O)c2C)c1Cl [Compound I-2]: 4.22
2) Cc1c(Oc2cccc(NS(=O)(=O)NC3CC3)c2Cl)c(C(=O)NC2CC2)c(Nc2ccc(I)cc2F)n(C)c1=O [Compound I-42]: 2.09
3) Cc1c(Oc2cccc(NS(=O)(=O)NCC(F)(F)F)c2Cl)c(C(=O)NC2CC2)c(Nc2ccc(I)cc2F)n(C)c1=O [Compound I-46]: 1.86

---

assay_remarks: Cassette pharmacokinetics studies in mice
Type: in vivo
measurement_conditions: male, Balb/c, plasma; Mouse, IV, 2 mg/kg
Item-by-item account of clearance
endpoint_label: clearance (mL/min/kg)

1) CNS(=O)(=O)Nc1cccc(Oc2c(C(=O)NC3CC3)c(Nc3ccc(I)cc3F)n(C)c(=O)c2C)c1OC: 74.9
2) CNS(=O)(=O)Nc1cccc(Oc2c(C(=O)NC3CC3)c(Nc3ccc(I)cc3F)n(C)c(=O)c2C)c1Cl: 17.2

---

assay_remarks: Pharmacokinetics in rat
Assay type: in vivo
measurement_conditions: plasma, IV, 0.2 mg/kg
endpoint_label: AUC(0-t) (µg·h/mL)

1) CNS(=O)(=O)Nc1cccc(Oc2c(C(=O)NC3CC3)c(Nc3ccc(I)cc3F)n(C)c(=O)c2C)c1OC: 0.1

---

Catalogue of Vd readings, one per entry.
assay_remarks: Cassette pharmacokinetics studies in mice
Assay type: in vivo
measurement_conditions: male, Balb/c, plasma; Mouse, IV, 2 mg/kg; read-out: Vdss
endpoint_label: Vd (L/kg)

1. CNS(=O)(=O)Nc1cccc(Oc2c(C(=O)NC3CC3)c(Nc3ccc(I)cc3F)n(C)c(=O)c2C)c1OC: 3.2
2. CNS(=O)(=O)Nc1cccc(Oc2c(C(=O)NC3CC3)c(Nc3ccc(I)cc3F)n(C)c(=O)c2C)c1Cl: 1.3

---

assay_remarks: Cassette pharmacokinetics studies in mice
Assay type: in vivo
measurement_conditions: male, Balb/c, plasma; Mouse, PO, 5 mg/kg
Rule: AUC(0-inf) under 4000 ng·h/mL gives false, otherwise true.

1) Cc1c(Oc2cccc(NS(=O)(=O)NC3CC3)c2Cl)c(C(=O)NC2CC2)c(Nc2ccc(I)cc2F)n(C)c1=O: false
2) CNS(=O)(=O)Nc1cccc(Oc2c(C(=O)N(C)C3CCC3)c(Nc3ccc(I)cc3F)n(C)c(=O)c2C)c1: false
3) Cc1c(Oc2cccc(NS(=O)(=O)NCC(F)(F)F)c2Cl)c(C(=O)NC2CC2)c(Nc2ccc(I)cc2F)n(C)c1=O: false
4) CNS(=O)(=O)Nc1cccc(Oc2c(C(=O)NC(C)C)c(Nc3ccc(I)cc3F)n(C)c(=O)c2C)c1Cl: false
5) CCNC(=O)c1c(Oc2cccc(NS(=O)(=O)NC)c2Cl)c(C)c(=O)n(C)c1Nc1ccc(I)cc1F: true
6) CCNS(=O)(=O)Nc1cccc(Oc2c(C(=O)NC3CC3)c(Nc3ccc(I)cc3F)n(C)c(=O)c2C)c1Cl: false
7) CNS(=O)(=O)Nc1cccc(Oc2c(C(=O)NC3CC3)c(Nc3ccc(I)cc3F)n(C)c(=O)c2C)c1OC(F)(F)F: false
8) Cc1c(Oc2cccc(NS(N)(=O)=O)c2Cl)c(C(=O)NC2CC2)c(Nc2ccc(I)cc2F)n(C)c1=O: true

---

assay_remarks: Pharmacokinetics in rat
Type: in vivo
measurement_conditions: plasma, IV, 0.2 mg/kg
endpoint_label: half-life

1. CNS(=O)(=O)Nc1cccc(Oc2c(C(=O)NC3CC3)c(Nc3ccc(I)cc3F)n(C)c(=O)c2C)c1OC: 144 min

---

target_or_test_system: uMEK/BRAF (Homo sapiens (Human), UniProt Q02750)
Sequence (Q02750 whole entry): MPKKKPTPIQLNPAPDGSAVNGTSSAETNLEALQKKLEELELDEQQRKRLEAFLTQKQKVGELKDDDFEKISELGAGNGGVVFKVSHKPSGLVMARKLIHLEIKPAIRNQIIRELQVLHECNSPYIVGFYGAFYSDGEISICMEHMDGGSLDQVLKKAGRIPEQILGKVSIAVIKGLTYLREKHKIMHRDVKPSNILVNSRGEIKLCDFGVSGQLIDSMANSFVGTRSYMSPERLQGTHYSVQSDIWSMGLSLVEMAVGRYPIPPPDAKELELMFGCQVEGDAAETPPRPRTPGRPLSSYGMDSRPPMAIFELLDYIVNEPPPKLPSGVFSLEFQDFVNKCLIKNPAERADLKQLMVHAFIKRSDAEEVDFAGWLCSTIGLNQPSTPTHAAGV
assay_remarks: MEK-RAF Binding Assay (uMEK/BRAF HTRF)
endpoint_label: IC50

1) Cc1c(Oc2cccc(N=S(C)(N)=O)c2)c(C(=O)NC2CC2)c(Nc2ccc(I)cc2F)n(C)c1=O (stereo in doubt) [Compound I-8]: < 100 nM
2) CNS(=O)(=O)n1ccc2c(Oc3c(C(=O)NC4CC4)c(Nc4ccc(I)cc4F)n(C)c(=O)c3C)cccc21 [Compound I-12]: < 100 nM
3) CNS(=O)(=O)Nc1ccc(Oc2c(C(=O)NC3CC3)c(Nc3ccc(I)cc3F)n(C)c(=O)c2C)cc1 [Compound I-64]: 100 to 1000 nM
4) Cc1c(Oc2cccc(NS(N)(=O)=O)c2)c(C(=O)NC2CC2)c(Nc2ccc(I)cc2F)n(C)c1=O [Compound I-6]: < 100 nM
5) CCNS(=O)(=O)Nc1cccc(Oc2c(C(=O)NC3CC3)c(Nc3ccc(I)cc3F)n(C)c(=O)c2C)c1Cl [Compound I-43]: < 100 nM
6) CNS(=O)(=O)Nc1cccc(Oc2c(C(=O)NC3CC3)c(Nc3ccc(I)cc3F)n(C)c(=O)c2C)c1C [Compound I-3]: < 100 nM
7) Cc1c(Oc2cccc(N=S(C)(N)=O)c2)c(C(=O)NC2CC2)c(Nc2ccc(I)cc2F)n(C)c1=O (stereo in doubt) [Compound I-7]: < 100 nM
8) Cc1c(Oc2ccc3c(c2)NS(=O)(=O)NC3)c(C(=O)NC2CC2)c(Nc2ccc(I)cc2F)n(C)c1=O [Compound I-13]: 100 to 1000 nM
9) CNS(=O)(=O)Nc1cccc(Oc2c(C(=O)N3CCC3)c(Nc3ccc(I)cc3F)n(C)c(=O)c2C)c1Cl [Compound I-79]: 100 to 1000 nM
10) Cc1c(Oc2ccc3c(c2)CN(C)S(=O)(=O)N3)c(C(=O)NC2CC2)c(Nc2ccc(I)cc2F)n(C)c1=O [Compound I-60]: 100 to 1000 nM
11) CNS(=O)(=O)Nc1cc(Oc2c(C(=O)NC3CC3)c(Nc3ccc(I)cc3F)n(C)c(=O)c2C)ccc1Cl [Compound I-19]: 100 to 1000 nM
12) CNS(=O)(=O)Nc1cccc(Oc2c(C(=O)NC3CC3)c(Nc3ccc(I)cc3F)n(C)c(=O)c2C)c1F [Compound I-4]: < 100 nM
13) CNS(=O)(=O)Nc1cccc(Oc2c(C(=O)N(C)C3CC3)c(Nc3ccc(I)cc3F)n(C)c(=O)c2C)c1C [Compound I-24]: 1000 to 10000 nM
14) CNS(=O)(=O)Nc1cc(Oc2c(C(=O)NC3CC3)c(Nc3ccc(I)cc3F)n(C)c(=O)c2C)ccc1F [Compound I-15]: 100 to 1000 nM
15) CNS(=O)(=O)Nc1cc(F)cc(Oc2c(C(=O)NC3CC3)c(Nc3ccc(I)cc3F)n(C)c(=O)c2C)c1 [Compound I-10]: < 100 nM
16) CNS(=O)(=O)Nc1cccc(Oc2c(C(=O)NCC(F)(F)F)c(Nc3ccc(I)cc3F)n(C)c(=O)c2C)c1Cl [Compound I-45]: < 100 nM
17) Cc1c(Oc2cccc(NS(=O)(=O)NC3CC3)c2Cl)c(C(=O)NC2CC2)c(Nc2ccc(I)cc2F)n(C)c1=O [Compound I-42]: < 100 nM
18) CNS(=O)(=O)Nc1cc(Oc2c(C(=O)NC3CC3)c(Nc3ccc(I)cc3F)n(C)c(=O)c2C)ccc1OC [Compound I-18]: 100 to 1000 nM
19) Cc1c(Oc2ccc3c(c2)CNS(=O)(=O)N3C)c(C(=O)NC2CC2)c(Nc2ccc(I)cc2F)n(C)c1=O [Compound I-61]: 100 to 1000 nM
20) CNS(=O)(=O)Cc1cccc(Oc2c(C(=O)NC3CC3)c(Nc3ccc(I)cc3F)n(C)c(=O)c2C)c1 [Compound I-23]: 100 to 1000 nM
21) CNS(=O)(=O)Nc1c(F)ccc(Oc2c(C(=O)NC3CC3)c(Nc3ccc(I)cc3F)n(C)c(=O)c2C)c1Cl [Compound I-38]: < 100 nM
22) CNS(=O)(=O)Nc1cccc(Oc2c(C(=O)NCC3CC3)c(Nc3ccc(I)cc3F)n(C)c(=O)c2C)c1Cl [Compound I-39]: < 100 nM
23) Cc1c(Oc2cccc(N)c2Cl)c(C(=O)NC2CC2)c(Nc2ccc(I)cc2F)n(C)c1=O [Compound I-86]: < 100 nM
24) Cc1c(Oc2cccc(CS(=O)(=O)N(C)C)c2)c(C(=O)NC2CC2)c(Nc2ccc(I)cc2F)n(C)c1=O [Compound I-11]: < 100 nM
25) CNS(=O)(=O)Nc1cc(Oc2c(C(=O)NC3CC3)c(Nc3ccc(I)cc3F)n(C)c(=O)c2C)ccc1C [Compound I-22]: 100 to 1000 nM
26) CNS(=O)(=O)Nc1ccc(F)c(Oc2c(C(=O)NC3CC3)c(Nc3ccc(I)cc3F)n(C)c(=O)c2C)c1 [Compound I-17]: 100 to 1000 nM
27) Cc1c(Oc2cccc(NS(=O)(=O)NCC(F)(F)F)c2Cl)c(C(=O)NC2CC2)c(Nc2ccc(I)cc2F)n(C)c1=O [Compound I-46]: < 100 nM
